The compounds below have reported AC50 for Growth hormone secretagogue receptor type 1 (Homo sapiens, UniProt Q92847).
Measured endpoint: AC50

{"Compound": "COc1cc(C(C)=O)ccc1OCCCN1CCC(c2noc3cc(F)ccc23)CC1 [ILOPERIDONE]", "Measured endpoint": "AC50", "Result": "> 30 µM"}
{"Compound": "CC(C)(Oc1ccc(CCNC(=O)c2ccc(Cl)cc2)cc1)C(=O)O [BEZAFIBRATE]", "Measured endpoint": "AC50", "Result": "> 10 µM"}
{"Compound": "CC(O)(CS(=O)(=O)c1ccc(F)cc1)C(=O)Nc1ccc(C#N)c(C(F)(F)F)c1 (centres undefined) [BICALUTAMIDE]", "Measured endpoint": "AC50", "Result": "2.2 µM"}
{"Compound": "C[N+](C)(C)CCOP(=O)([O-])OC[C@H](O)CO", "Measured endpoint": "AC50", "Result": "> 30 µM"}
{"Compound": "O=C(O)CCNC(=O)c1ccc(/N=N/c2ccc(O)c(C(=O)O)c2)cc1 [BALSALAZIDE]", "Measured endpoint": "AC50", "Result": "> 30 µM"}
{"Compound": "COc1cc(N)c(Cl)cc1C(=O)NC1CCN(CCCOc2ccc(F)cc2)CC1OC (centres undefined) [CISAPRIDE]", "Measured endpoint": "AC50", "Result": "> 30 µM"}
{"Compound": "Cn1cc(C(=O)[C@@H]2CCc3nc[nH]c3C2)c2ccccc21 [RAMOSETRON]", "Measured endpoint": "AC50", "Result": "> 30 µM"}
{"Compound": "CN1Cc2c(N)cccc2C(c2ccccc2)C1 (centres undefined) [NOMIFENSINE]", "Measured endpoint": "AC50", "Result": "> 30 µM"}
{"Compound": "Oc1cc(O)c(Cl)cn1", "Measured endpoint": "AC50", "Result": "> 30 µM"}
{"Compound": "CNCCc1ccc(OC(=O)C(C)C)c(OC(=O)C(C)C)c1 [IBOPAMINE]", "Measured endpoint": "AC50", "Result": "> 30 µM"}
{"Compound": "CO/N=C(\\C(=O)N[C@@H]1C(=O)N2C(C(=O)O)=CCS[C@H]12)c1csc(N)n1 [CEFTIZOXIME]", "Measured endpoint": "AC50", "Result": "> 30 µM"}
{"Compound": "O=C(O)c1ccc(NC(=O)[C@H](Cc2ccc(O)cc2)NC(=O)c2ccccc2)cc1 [BENTIROMIDE]", "Measured endpoint": "AC50", "Result": "> 10 µM"}
{"Compound": "Cc1onc(-c2c(F)cccc2Cl)c1C(=O)N[C@@H]1C(=O)N2[C@@H]1SC(C)(C)[C@@H]2C(=O)O [FLOXACILLIN]", "Measured endpoint": "AC50", "Result": "> 30 µM"}
{"Compound": "Cc1cc(C)nc(NS(=O)(=O)c2ccc(N)cc2)n1 [SULFAMETHAZINE]", "Measured endpoint": "AC50", "Result": "> 10 µM"}
{"Compound": "O=C(O)Cc1ccccc1Oc1ccc(Cl)cc1Cl [FENCLOFENAC]", "Measured endpoint": "AC50", "Result": "> 30 µM"}
{"Compound": "CCC[C@@H]1C[C@@H](C(=O)N[C@@H]([C@H]2O[C@H](SC)[C@H](O)[C@@H](O)[C@H]2O)[C@@H](C)O)N(C)C1 [LINCOMYCIN]", "Measured endpoint": "AC50", "Result": "> 10 µM"}
{"Compound": "CC(=O)Nc1ccc(CC(=O)O)cc1 [ACTARIT]", "Measured endpoint": "AC50", "Result": "> 30 µM"}
{"Compound": "O=c1[nH]c2ccccc2n1CCCN1CCN(C(c2ccccc2)c2ccccc2)CC1 [OXATOMIDE]", "Measured endpoint": "AC50", "Result": "8.8 µM"}
{"Compound": "COC(=O)C1=C(C)NC(C)=C(C(=O)OCCN2CCN(C(c3ccccc3)c3ccccc3)CC2)C1c1cccc([N+](=O)[O-])c1 (centres undefined) [MANIDIPINE 6300]", "Measured endpoint": "AC50", "Result": "> 30 µM"}
{"Compound": "CC1=C(C(=O)OC(C)C)C(c2cccc([N+](=O)[O-])c2)C(C(=O)OC2CN(C(c3ccccc3)c3ccccc3)C2)=C(N)N1 (centres undefined) [AZELNIDIPINE]", "Measured endpoint": "AC50", "Result": "> 30 µM"}
{"Compound": "CC[C@@H](CO)NC(=O)[C@@H]1C=C2c3cccc4c3c(cn4C)C[C@H]2N(C)C1 [METHYSERGIDE]", "Measured endpoint": "AC50", "Result": "> 30 µM"}
{"Compound": "O=C(O)Cc1ccccc1Nc1c(Cl)cccc1Cl [DICLOFENAC]", "Measured endpoint": "AC50", "Result": "> 30 µM"}
{"Compound": "Cc1nnc(SCC2=C(C(=O)O)N3C(=O)[C@@H](NC(=O)Cn4cnnn4)[C@H]3SC2)s1 [CEFAZOLIN]", "Measured endpoint": "AC50", "Result": "> 300 µM"}
{"Compound": "COc1cc(C)c(/C=C/C(C)=C/C=C/C(C)=C/C(=O)O)c(C)c1C [ACITRETIN]", "Measured endpoint": "AC50", "Result": "> 10 µM"}
{"Compound": "C/C=C(/C(=C/C)c1ccc(O)cc1)c1ccc(O)cc1 [DIENESTROL]", "Measured endpoint": "AC50", "Result": "> 10 µM"}
{"Compound": "C[C@]12CCC(=O)C[C@@H]1CC[C@@H]1[C@@H]2CC[C@]2(C)[C@@H](O)CC[C@@H]12 [STANOLONE]", "Measured endpoint": "AC50", "Result": "> 30 µM"}
{"Compound": "O=C1c2cccc3c2[C@H](CCC3)CN1[C@@H]1CN2CCC1CC2 [PALONOSETRON]", "Measured endpoint": "AC50", "Result": "> 30 µM"}
{"Compound": "CC(CN1c2ccccc2Sc2ccccc21)N(C)C (centres undefined) [PROMETHAZINE]", "Measured endpoint": "AC50", "Result": "> 30 µM"}
{"Compound": "C=C1c2cccc(O)c2C(=O)C2=C(O)[C@]3(O)C(=O)C(C(N)=O)=C(O)[C@@H](N(C)C)[C@@H]3[C@@H](O)[C@H]12 [METHACYCLINE]", "Measured endpoint": "AC50", "Result": "> 30 µM"}
{"Compound": "COc1cc2[nH]c(C)c(CCN3CCN(c4ccccc4)CC3)c2cc1OC [OXYPERTINE]", "Measured endpoint": "AC50", "Result": "> 30 µM"}
{"Compound": "S=P(N1CC1)(N1CC1)N1CC1 [THIOTEPA]", "Measured endpoint": "AC50", "Result": "> 30 µM"}
{"Compound": "CC1(C)S[C@@H]2[C@H](NC(=O)C(C(=O)O)c3ccccc3)C(=O)N2[C@H]1C(=O)O (some centres undefined) [CARBENICILLIN]", "Measured endpoint": "AC50", "Result": "> 30 µM"}
{"Compound": "COC(=O)[C@H]1[C@H]2C[C@@H]3c4[nH]c5cc(OC)ccc5c4CCN3C[C@H]2C[C@@H](OC(=O)c2cc(OC)c(OC)c(OC)c2)[C@@H]1OC [RESERPINE]", "Measured endpoint": "AC50", "Result": "> 10 µM"}
{"Compound": "CC(C)[C@@H](C)/C=C/[C@@H](C)[C@H]1CC[C@H]2/C(=C/C=C3\\C[C@@H](O)CC[C@@H]3C)CCC[C@]12C [DIHYDROTACHYSTEROL]", "Measured endpoint": "AC50", "Result": "> 10 µM"}

###

// values below are reported AC50
# Target: Alpha-2A adrenergic receptor (Homo sapiens, UniProt P08913); note: assay procedure not described here
# Sequence (P08913 whole entry): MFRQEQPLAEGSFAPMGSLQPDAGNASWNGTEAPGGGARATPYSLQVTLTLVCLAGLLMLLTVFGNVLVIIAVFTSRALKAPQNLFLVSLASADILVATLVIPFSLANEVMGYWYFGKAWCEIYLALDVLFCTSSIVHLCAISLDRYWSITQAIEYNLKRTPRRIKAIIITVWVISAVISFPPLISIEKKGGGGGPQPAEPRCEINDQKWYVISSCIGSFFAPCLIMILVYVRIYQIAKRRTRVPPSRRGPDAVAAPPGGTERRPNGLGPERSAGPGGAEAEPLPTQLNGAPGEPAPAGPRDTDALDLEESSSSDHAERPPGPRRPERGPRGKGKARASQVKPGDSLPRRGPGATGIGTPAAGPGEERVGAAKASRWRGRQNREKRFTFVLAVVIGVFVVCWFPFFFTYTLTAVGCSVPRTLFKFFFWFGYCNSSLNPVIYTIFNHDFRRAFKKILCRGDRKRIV
# Assay type: functional, cell-based

{"Compound": "COc1ccc([C@@H]2CC(=O)c3c(O)cc(O)cc3O2)cc1O", "AC50": "> 10 µM"}
{"Compound": "CCOc1nc2cccc(C(=O)O)c2n1Cc1ccc(-c2ccccc2-c2nnn[nH]2)cc1", "AC50": "> 30 µM"}
{"Compound": "Cc1nc(Nc2ncc(C(=O)Nc3c(C)cccc3Cl)s2)cc(N2CCN(CCO)CC2)n1", "AC50": "> 30 µM"}
{"Compound": "CCCCOc1ccc(C(=O)CCN2CCCCC2)cc1", "AC50": "> 10 µM"}
{"Compound": "CCC[C@@H]1C[C@@H](C(=O)N[C@@H]([C@H]2O[C@H](SC)[C@H](O)[C@@H](O)[C@H]2O)[C@@H](C)O)N(C)C1", "AC50": "> 30 µM"}
{"Compound": "CCN1CCCC1CNC(=O)c1cc(S(=O)(=O)CC)ccc1OC (centres undefined) [SULTOPRIDE]", "AC50": "> 30 µM"}
{"Compound": "Cc1cc(=O)n(-c2ccccc2)n1C [ANTIPYRINE]", "AC50": "> 10 µM"}
{"Compound": "CCCC(C)(COC(N)=O)COC(N)=O [MEPROBAMATE]", "AC50": "> 10 µM"}
{"Compound": "CCOc1cc([C@@H](CS(C)(=O)=O)N2C(=O)c3cccc(NC(C)=O)c3C2=O)ccc1OC", "AC50": "> 30 µM"}
{"Compound": "CC(C)(O/N=C(\\C(=O)N[C@@H]1C(=O)N2C(C(=O)[O-])=C(C[n+]3ccccc3)CS[C@H]12)c1csc(N)n1)C(=O)O", "AC50": "> 300 µM"}
{"Compound": "CCc1cc2c(s1)-n1c(C)nnc1CN=C2c1ccccc1Cl", "AC50": "> 30 µM"}
{"Compound": "COc1ccc2cc(CCC(C)=O)ccc2c1", "AC50": "> 10 µM"}
{"Compound": "CC(Cc1cccc(C(F)(F)F)c1)NCCOC(=O)c1ccccc1 (centres undefined)", "AC50": "> 30 µM"}
{"Compound": "CCOC(=O)c1ccc(N)cc1", "AC50": "> 10 µM"}
{"Compound": "CCC1(CCC(C)C)C(=O)NC(=O)NC1=O", "AC50": "> 10 µM"}
{"Compound": "C[C@]12C=CC(=O)C=C1CC[C@@H]1[C@@H]2CC[C@]2(C)OC(=O)CC[C@@H]12", "AC50": "> 30 µM"}
{"Compound": "CCOC(=O)[C@@H](N)Cc1ccc(-c2cc(O[C@H](c3ccc(Cl)cc3-n3ccc(C)n3)C(F)(F)F)nc(N)n2)cc1", "AC50": "> 30 µM"}
{"Compound": "C[C@@H]1C[C@H]2[C@@H]3CCC4=CC(=O)C=C[C@]4(C)[C@@]3(F)[C@@H](O)C[C@]2(C)[C@@]1(O)C(=O)CO", "AC50": "> 10 µM"}
{"Compound": "CCC(=O)O[C@]1(C(=O)CCl)[C@@H](C)C[C@H]2[C@@H]3CCC4=CC(=O)C=C[C@]4(C)[C@@]3(F)[C@@H](O)C[C@@]21C [CLOBETASOL PROPIONATE]", "AC50": "> 30 µM"}
{"Compound": "Cn1c(=O)c2c(ncn2CCOC(=O)C(C)(C)Oc2ccc(Cl)cc2)n(C)c1=O [THEOFIBRATE]", "AC50": "> 30 µM"}
{"Compound": "O=c1c(O)c(-c2ccc(O)c(O)c2)oc2cc(O)cc(O)c12", "AC50": "> 10 µM"}
{"Compound": "Cc1ccccc1N1C(=O)c2cc(S(N)(=O)=O)c(Cl)cc2NC1C (centres undefined)", "AC50": "> 10 µM"}
{"Compound": "Cc1onc(-c2c(F)cccc2Cl)c1C(=O)N[C@@H]1C(=O)N2[C@@H]1SC(C)(C)[C@@H]2C(=O)O", "AC50": "> 30 µM"}
{"Compound": "CC(C)[C@H](N)C(=O)OCCOCn1cnc2c(=O)[nH]c(N)nc21", "AC50": "> 10 µM"}
{"Compound": "CC(C)[C@@H](C)/C=C/[C@@H](C)[C@H]1CC[C@H]2/C(=C/C=C3\\C[C@@H](O)CC[C@@H]3C)CCC[C@]12C [DIHYDROTACHYSTEROL]", "AC50": "> 10 µM"}
{"Compound": "C=CC[N+]1([C@H]2C[C@H]3[C@@H]4CC[C@H]5C[C@H](O)[C@@H](N6CCOCC6)C[C@]5(C)[C@H]4CC[C@]3(C)[C@H]2OC(C)=O)CCCC1", "AC50": "> 30 µM"}
{"Compound": "CN[C@]1(c2ccccc2Cl)CCCCC1=O", "AC50": "> 30 µM"}
{"Compound": "CC[C@H](C)C(=O)O[C@H]1C[C@@H](C)C=C2C=C[C@H](C)[C@H](CC[C@@H]3C[C@@H](O)CC(=O)O3)[C@H]21", "AC50": "> 10 µM"}
{"Compound": "Cc1ccc(C)c(OCCCC(C)(C)C(=O)O)c1", "AC50": "> 10 µM"}
{"Compound": "CC(=O)c1ccc(S(=O)(=O)NC(=O)NC2CCCCC2)cc1 [ACETOHEXAMIDE]", "AC50": "> 30 µM"}
{"Compound": "CCN1CC(CCN2CCOCC2)C(c2ccccc2)(c2ccccc2)C1=O (centres undefined)", "AC50": "> 30 µM"}
{"Compound": "CCOC(=O)C(C)(C)Oc1ccc(Cl)cc1 [CLOFIBRATE]", "AC50": "> 10 µM"}
{"Compound": "OC[C@H]1O[C@@H](n2cnc3c2NC=NC[C@H]3O)C[C@@H]1O", "AC50": "> 30 µM"}
{"Compound": "CC(C)(C)NCC(O)c1ccccc1Cl (centres undefined)", "AC50": "> 30 µM"}
